pIC50 values, listed per item
TARGET UNDER TEST: hSLC13A5 (Homo sapiens, UniProt Q86YT5)
Sequence (Q86YT5 whole entry): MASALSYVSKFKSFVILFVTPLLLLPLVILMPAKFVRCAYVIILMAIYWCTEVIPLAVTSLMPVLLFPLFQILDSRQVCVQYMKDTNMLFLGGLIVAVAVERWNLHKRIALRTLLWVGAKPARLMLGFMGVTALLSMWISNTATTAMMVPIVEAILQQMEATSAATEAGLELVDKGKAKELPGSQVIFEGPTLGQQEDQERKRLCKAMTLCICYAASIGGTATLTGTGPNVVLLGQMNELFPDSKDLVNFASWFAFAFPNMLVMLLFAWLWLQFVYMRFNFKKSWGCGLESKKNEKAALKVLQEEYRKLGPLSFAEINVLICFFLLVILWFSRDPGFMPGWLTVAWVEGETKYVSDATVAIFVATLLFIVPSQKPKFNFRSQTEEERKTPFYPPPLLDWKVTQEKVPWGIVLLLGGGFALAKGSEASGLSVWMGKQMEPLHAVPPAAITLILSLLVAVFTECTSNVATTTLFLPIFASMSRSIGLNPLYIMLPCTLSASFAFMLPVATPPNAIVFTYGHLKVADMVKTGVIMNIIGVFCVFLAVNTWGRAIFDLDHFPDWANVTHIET
PROTOCOL DETAILS: HepG2/14C-citrate uptake assay
Format: cell-based
Parameters: HepG2 cells endogenously express hSLC13A5 transporter which is responsible for the uptake of citrate into these cells; endogenous in cells; host or cells: HepG2
RUN CONDITIONS: HepG2 cells endogenously expressing hSLC13A5; Cytostar-T; 14C-citrate ~1.8 μM; incubation over night
Method: (4) HepG2/^14C-Citrate Uptake Assay HepG2 cells endogenously expressing hSLC13A5 were obtained from the Wistar Institute (Knowles et al., Science 1980, 209, 497-499). HepG2 cells endogenously express hSLC13A5 transporter which is responsible for the uptake of citrate into these cells. […] The uptake of ^14C-citrate into HepG2 cells is monitored using the Cytostar-T assay. […] The IC50 values of the compounds are calculated in IDBS XLfit by sigmoidal dose-response (variable slope).
pIC50: −log10 of the molar value.
MEASURED PROPERTY: pIC50

>>> measured_number("Cc1ccc(CNC(=O)C2CCN(S(=O)(=O)c3cc(Cl)cc(Cl)c3)CC2)cn1")
6.20
>>> measured_number("CCOc1cc(Cl)cc(S(=O)(=O)N2CCC(C(=O)NCc3ccc(C#N)cc3F)CC2)c1")
7.14
>>> measured_number("Cc1cc(C)cc(S(=O)(=O)N2CCC(C(=O)NCc3ccc(F)cc3)CC2)c1")
7.46
>>> measured_number("O=C(NCc1ccc(F)cn1)C1CCN(S(=O)(=O)c2cc(Br)cc(Br)c2)CC1")
6.83
>>> measured_number("COc1ncccc1CNC(=O)C1CCN(S(=O)(=O)c2cc(Br)cc(Br)c2)CC1")
6.74
>>> measured_number("O=C(NCc1ccc(Cl)cc1)C1CCN(S(=O)(=O)c2cc(Br)cc(Br)c2)CC1")
7.85
>>> measured_number("CCOc1cc(Cl)cc(S(=O)(=O)N2CCC(C(=O)NCc3ccc(F)cc3)CC2)c1")
7.85
>>> measured_number("O=C(NCc1nccs1)C1CCN(S(=O)(=O)c2cc(Cl)cc(Cl)c2)CC1")
6.61
>>> measured_number("COc1cc(Cl)cc(S(=O)(=O)N2CCC(C(=O)NCc3ccc(F)cc3)CC2)c1")
7.32

Data origin, for the record: patent US10793522B2
